Where do these numbers come from? They come from ChEMBL document CHEMBL6083275.

Documented inhibition at 10 µM across a set of compounds
# Target Entity: CYP2C9 (Homo sapiens, UniProt P11712)
# Sequence (P11712 whole entry): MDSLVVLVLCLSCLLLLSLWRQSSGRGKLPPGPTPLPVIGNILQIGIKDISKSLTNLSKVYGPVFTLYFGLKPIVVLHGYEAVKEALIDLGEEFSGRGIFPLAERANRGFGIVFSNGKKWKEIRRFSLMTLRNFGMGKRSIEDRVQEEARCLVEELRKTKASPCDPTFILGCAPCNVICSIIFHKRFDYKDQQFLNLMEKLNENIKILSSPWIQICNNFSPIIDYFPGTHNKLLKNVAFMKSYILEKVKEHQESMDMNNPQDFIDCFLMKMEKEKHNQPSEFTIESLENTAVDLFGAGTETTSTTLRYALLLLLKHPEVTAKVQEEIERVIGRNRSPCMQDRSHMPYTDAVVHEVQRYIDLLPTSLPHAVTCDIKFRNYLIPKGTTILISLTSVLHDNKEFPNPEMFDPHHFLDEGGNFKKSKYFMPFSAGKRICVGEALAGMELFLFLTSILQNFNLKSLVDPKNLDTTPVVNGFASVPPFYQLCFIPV
# Assay Summary: Inhibition of CYP2C9 (unknown origin) at 10 uM relative to control
# Assay type: ADME
Measurement Label: inhibition at 10 µM

1. CC(C)C[C@](C)(N)COc1ccc(-c2ccnc(C(F)F)c2)c2nccn12 :: < 20%
2. CC(C)C[C@](C)(N)COc1ccc(-c2ccnc(C(F)F)c2)n2cncc12 :: < 20%
3. CC(C)C[C@](C)(N)COc1ccc(-c2ccnc(C(F)F)c2)nc1C(F)F [PILAVAPADIN] :: < 20%

---

Documented AUC(0-t) across a set of compounds
# Assay Summary: AUC (0 to 24 hrs) in C57BL/6J mouse at 10 mg/kg, po
# Type: ADME, organism-based
# Condition Label: in vivo
Measurement Label: AUC(0-t)

1) CC(C)C[C@](C)(N)COc1ccc(-c2ccnc(C(F)F)c2)nc1C(F)F :: 9150 ng·h/mL
2) CC(C)C[C@](C)(N)COc1ccc(-c2ccnc(C(F)F)c2)c2nccn12 :: 9150 ng·h/mL
3) CC(C)C[C@](C)(N)COc1ccc(-c2ccnc(C(F)F)c2)c2cncn12 :: 2340 ng·h/mL
4) CC(C)C[C@](C)(N)COc1ccc(-c2ccnc(C(F)F)c2)n2cncc12 :: 4550 ng·h/mL
